Hey, just so you know, these numbers are from patent US6831075B2.

molecular target: baculoviral GST-MLK1KD (Homo sapiens); construct: 1 μg/ml of baculoviral GST-MLK1KD; GST (N); host or cells: baculovirus expression system; assay: Mixed Lineage Kinase-1 inhibition assay (Millipore Multiscreen TCA in-plate, 32P); format: biochemical; conditions: 1 uM compound; 60 μM ATP
Sequence (P80192 144-412 limits assumed): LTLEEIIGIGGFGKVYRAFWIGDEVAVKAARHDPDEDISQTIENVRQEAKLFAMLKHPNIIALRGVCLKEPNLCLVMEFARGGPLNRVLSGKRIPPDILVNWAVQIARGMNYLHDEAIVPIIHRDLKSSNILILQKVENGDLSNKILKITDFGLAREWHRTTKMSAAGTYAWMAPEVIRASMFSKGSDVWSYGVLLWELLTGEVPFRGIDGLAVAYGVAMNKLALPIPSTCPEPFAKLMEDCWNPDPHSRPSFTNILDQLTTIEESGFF
readout_kind: MLK-1 Kinase % inhibition @ 1 uM (%)
One number for each entry, in %.

Example entries and their recorded answers appear below.
CCOC(=O)CCc1c(C(=O)OCC)[nH]c(C=C2C(=O)NN=C2c2ccoc2)c1CC(=O)OCC | 9
Cn1cccc1C1=NNC(=O)C1=Cc1c[nH]c2ccc(F)cc12 | −22
Cn1cc(C=C2C(=O)NN=C2c2ccco2)c2ccccc21 | 24
Cc1cc(C)c(C=C2C(=O)NN=C2c2cc(C)oc2C)[nH]1 | −9
Cn1ccc(C2=NNC(=O)C2=Cc2c[nH]c3ccc(F)cc23)c1 | 5

For every item in the list below, what is its measured MLK-1 Kinase % inhibition @ 1 uM?
1. Cc1cc(C)c(C=C2C(=O)NN=C2c2cccn2C)[nH]1
2. O=C1NN=C(c2ccoc2)C1=Cc1c[nH]c2ccc(OCc3ccccc3)cc12
3. COC(=O)c1ccc2c(C=C3C(=O)NN=C3c3ccco3)c[nH]c2c1

1. −5
2. 4
3. 11

Missing value: MLK-1 Kinase % inhibition @ 1 uM, baculoviral GST-MLK1KD (Homo sapiens), entry O=C1NN=C(c2cccs2)C1=Cc1cn(Cc2ccccc2)c2ccccc12 . Fill in? 5
